Each recorded value in this set is attributed to PubChem BioAssay (NCI).

- Test system: HT29 colon
- assay_method_text: NCI tumour cell line growth inhibition, 48 h
Can you tell me GI50 for the items I'm about to list?

GI50 lookup needed for O=C(Oc1ccccc1Cl)c1cccnc1Nc1ccnc(C(F)(F)F)c1 , thanks.
25.3 µM

Which GI50 value is on record for CC(=O)c1ccc(NCn2nc(-c3ccccc3O)oc2=S)cc1 ?
47 µM

Fill in the blank: the reported GI50 of COc1cc2c(cc1OCCN1C(=O)c3cccc4cccc(c34)C1=O)N=C[C@@H]1CCCN1C2=O is ____.
14.4 µM

For COc1ccc(-c2ccc(=O)oc2-c2cc(OC)c(OC)c(OC)c2)cc1O , what is its reported GI50?
0.663 µM

====

- System: MOLT-4 leukemia
- assay_method_text: NCI tumour cell line growth inhibition, 48 h
Would you mind telling me the reported TGI of each entry?

Record request: TGI value, item O=c1[nH]nc2c3n[nH]c(=O)n3c3ccccc3n12
> 100 µM

What value of measured TGI is listed for CCC1N2CCCCC2[C@@H]2c3[nH]c4ccccc4c3CCN12 (stereo not given in full) ?
> 100 µM

Item N=c1nc(N)nc(N)n1-c1ccc(S(N)(=O)=O)cc1 has what recorded TGI?
> 100 µM

# lookup: TGI of CN(C)c1ncc(-c2c[nH]c3ccccc23)nc1-c1c[nH]c2ccccc12
27.5 µM

Reported TGI, compound C#Cc1cccc(N2C(=O)CC(=P(c3ccccc3)(c3ccccc3)c3ccccc3)C2=O)c1 : ____
> 100 µM

====

- System: HOP-92 NSCLC
- assay_method_text: NCI tumour cell line growth inhibition, 48 h
measured_parameter: log10(TGI) (log10 of the value in µM)
Note: values are log10 of TGI expressed in µM.

Entry O=C(C1=CCC2(CC1)OCCO2)N(Cc1ccccc1)c1ccccc1I : reported log10(TGI) = ?
1.64

Which log10(TGI) reading was recorded for the compound COc1ccc(/C=C/c2cc(=O)cc(/C=C/c3ccc(OC)c(O)c3)o2)cc1O ?
1.13

I have this compound here, CCCCCCCCOC(=O)c1cc(O)c(O)c(O)c1 , and I need its recorded log10(TGI).
1.19

I am curious: what log10(TGI) value has been reported for CN1CCN(c2ccc(NC3=C(Cl)C(=O)c4ncccc4C3=O)cc2C(F)(F)F)CC1 ?
0.48

Could you share which log10(TGI) value was measured for O=c1c2ccccc2c(C=NCCNCCO)c2oc3ccccc3n12 ?
1.43

====

Exercise: state measured TGI for each of the molecules provided.
- Tested on: RXF 393 renal
- assay_method_text: NCI tumour cell line growth inhibition, 48 h
Hi! Could you send only the number? It should be in µM, unit omitted.

What does the record list as TGI for CC1=CC(=O)c2cccc(O)c2C1=O ?
3.36

Given the entry COc1ccc(OC)c(-c2cn3nc(-c4c[nH]c5ccc(Br)cc45)sc3n2)c1 , report its measured TGI.
8.82

Which TGI is reported for this molecule? CN([N-]C(=O)CC(=O)[N-]N(C)C(=S)c1ccccc1)C(=S)c1ccccc1.[Cu+2]
0.0729

Which TGI is listed for CCCCCn1ncc(-c2c(O)c(O)cc3c(O)c(-c4c(C)cc5c(-c6cnn(CCCCC)n6)c(O)c(O)cc5c4O)c(C)cc23)n1 ?
6.45

Find the recorded TGI belonging to O=C1c2ccccc2C(=O)c2[nH]c(=O)c(/C=N/Nc3ccc([N+](=O)[O-])cc3)nc21 and report it.
33.4

Record request: TGI value, item Nc1nonc1-c1noc(-c2nonc2N)[n+]1[O-]
51.1

# get_value(readout='TGI', item= CCCCCCCCOC(=O)c1cc(O)c(O)c(O)c1 )
22

I am curious: what TGI value has been reported for CC(C)NCCCNC1=C(Cl)C(=O)c2ccccc2C1=O ?
27.8

GET /values?readout=TGI&item= CCCCC/C=C1\CCC(CN2CCOCC2)C1=O (centres undefined)
12.3

Form field: reported TGI of CC(=O)NC1C(OCc2ccccc2)OC(CO)C(O)C1OCC(=O)NC(C)C(=O)NC(CCC(=O)OCCNC(=O)c1cccc2cc3ccccc3nc12)C(N)=O (centres undefined)
39.7

For COc1ccc(CNCCCN2C(=O)c3ccc4c5c(ccc(c35)C2=O)C(=O)N(CCCNCCCCNCCCN)C4=O)c(OC)c1OC , what is its reported TGI?
3.67

GET /values?readout=TGI&item= COc1ccc(-n2nc(C)c3c(Nc4ccc(NC(=O)Nc5cc(C(F)(F)F)ccc5F)cc4)ncnc32)cc1
2.82

Please report the recorded TGI for COc1cccc2c1[C@H](OC)[C@]13O[C@@]1(C2=O)[C@H](O)[C@H](C)[C@@](O)(C(=O)[C@@H]1O[C@H]1C)[C@@H]3O .
1.1

Fill blank: measured TGI of the molecule CC(=O)[CH-]C(=O)c1ccccc1.CC(=O)[CH-]C(=O)c1ccccc1.[O-]c1ccc(O)cc1.[O-]c1ccc(O)cc1.[Ti+4] is ____.
20.5

Param item = C=C(Cl)C(Br)(CCl)CCC(Cl)C(C)C (centres undefined) (tested in a mixture with another compound) ; retrieve measured TGI.
3.93

Returns the measured TGI for the input molecule. Input: O=[N+]([O-])/C=C/c1cccc(F)c1
4.32

Would you mind telling me what TGI value was observed for C=C(/C=C/C=C(/CCC=C(C)C)COC(C)=O)[C@@H]1CC[C@]2([C@H](CCCO)/C(=C(/C)C=O)CC[C@]2(C)O)[C@@H]1O ?
33.1

Please look up its TGI: COc1cc2c3c(n(CCCn4cccn4)c(=O)c2cc1OC)-c1cc2c(cc1C3=O)OCO2
27.7

Name the reported TGI value associated with the molecule O=C(/C=C/c1ccccc1)c1ccc(O)c(CN2CCN(c3cc4c(cc3F)c(=O)c(C(=O)O)cn4C3CC3)CC2)c1
15.8

====

For each entry below, report its TGI value.
- System: CAKI-1 renal
- assay_method_text: NCI tumour cell line growth inhibition, 48 h
Please state the figure in µM; there is no need to write the unit.

Name the recorded TGI for CCCCCCCCOC(=O)c1cc(O)c(O)c(O)c1 .
3.52

What value of measured TGI is listed for O=C1C=CC(=O)c2c(O)c(Nc3ccc(OC(F)(F)F)cc3)c(Cl)c(O)c21 ?
2.96

Recorded TGI of CN(C)CCNc1ccc2nnn3c4ccc(Cl)cc4c(=O)c1c23 , please.
11

Given COC(=O)c1ccc(NCc2cc(O)c3ccccc3c2O)cc1 , state its recorded TGI.
13.4

So what's the measured TGI for this one? CCCCn1c(=O)c(/C=C/C(=O)/C=C/c2ccc(O)c(OC)c2)cc2ccc(Cl)cc21
3.91

====

- Test system: TK-10 renal
- assay_method_text: NCI tumour cell line growth inhibition, 48 h
I'd be grateful if you could share measured TGI for these entries.

Fill in: TGI of CCC(=O)[O-].CCC(=O)[O-].N.N.N.N.[Co+3].[O-][Cl+3]([O-])([O-])[O-] is ___
> 100 µM

Tell me the measured TGI of Cc1c2ccccc2nc2[nH]c3ccncc3c12 , please.
59.4 µM

Quick one: TGI for C[C@H](C(=O)N1C(=O)O[C@@H](c2ccccc2)[C@H]1C)[C@H](c1ccccc1)N(Cc1ccccc1)OC(=O)c1ccccc1 ?
> 100 µM

Look up TGI for this compound: CSc1ccc2c(cc1=O)C(NC(=O)c1cc(O)c(OC(=O)O)c(O)c1)CCc1cc(O)c(O)c(O)c1-2 (stereo not given)
> 90 µM

Data request, read-out TGI, for N=c1nc(N)nc(N)n1-c1ccc(S(N)(=O)=O)cc1
> 100 µM

====

- Test system: SK-MEL-5 melanoma
- assay_method_text: NCI tumour cell line growth inhibition, 48 h
measured_parameter: TGI (µM)
State the answer as a number, implicitly in µM.

Quick one: TGI for CCCCCCCCCCCCCC/C(=C/OCC[N+](C)(C)C)OC(C)=O (tested in a mixture with another compound) ?
4.92

What does the record list as TGI for CCCCCCCCOC(=O)c1cc(O)c(O)c(O)c1 ?
11.6

I would be grateful if you could share the reported TGI for COc1ncnc2c1ncn2C/C(Br)=C(\Br)CCl .
5.59

Entry under review: CCc1nc2cc(/C=C/C(=O)NO)c(F)cc2c(=O)n1CCc1ccccc1 . Reported TGI?
2.52

Request the reported TGI associated with O=[N+]([O-])/C=C/c1cccc(F)c1
18.6

What TGI value was documented for this compound, Cc1cc(Cl)ccc1OCC(=O)Oc1c(Cl)c(Cl)c(Cl)c(Cl)c1Cl ?
61.9

====

- Test system: UO-31 renal
- assay_method_text: NCI tumour cell line growth inhibition, 48 h
measured_parameter: TGI (µM)
// return numeric value only (unit: µM, not printed)

Field request: TGI | item: CC1=CC(=O)c2cccc(O)c2C1=O
3.28

Using the record for Fc1ccc(C(OCCN2CC3CC2CN3CCCc2ccccc2)c2ccc(F)cc2)cc1 (stereo not given) , report its TGI.
24.7

Please report the recorded TGI for COc1ccc(OC)c(-c2cn3nc(-c4c[nH]c5ccc(Br)cc45)sc3n2)c1 .
11.2

Entry under review: CCCCCCc1ccc(O)cc1O . Reported TGI?
86.7
